# test_system: Gal4-RORγ-LBD (Homo sapiens, UniProt P51449)
# Construct: expressed in transfected cells; host or cells: HEK-293 cells (pcDNA3.1neo plasmid)
# Sequence (P51449 269-508 limits assumed): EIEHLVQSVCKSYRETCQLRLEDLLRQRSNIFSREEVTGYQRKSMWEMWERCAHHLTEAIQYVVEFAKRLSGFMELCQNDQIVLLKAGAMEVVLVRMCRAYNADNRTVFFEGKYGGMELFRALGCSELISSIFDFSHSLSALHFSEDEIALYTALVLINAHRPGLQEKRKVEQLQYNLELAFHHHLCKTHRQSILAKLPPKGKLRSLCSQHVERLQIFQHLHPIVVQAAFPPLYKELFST
# protocol_notes: Gal4-RORγ Luciferase Reporter Assay in HEK-293T Cells
# Format: cell-based
# cond: HEK-293 cells, 2 μM ursolic acid
metric_name: EC50

Q: For Gal4-RORγ-LBD (Homo sapiens, UniProt P51449), give EC50 of the listed compound: CC(C)(C[C@H]1CN(S(=O)(=O)c2cccc(C(F)(F)F)c2)c2cc(-c3cccc(OC(F)F)c3F)ccc2O1)C(=O)O [Compound 32BJ]
A: < 500 nM

Next:
Q: State EC50 on Gal4-RORγ-LBD (Homo sapiens, UniProt P51449). Entry: CC(C)(C[C@H]1CN(S(=O)(=O)c2cccc(C(F)(F)F)c2)c2cc(-c3cc(F)cc(OC(F)F)c3F)ccc2O1)C(=O)O [Compound 32BG]
A: < 500 nM

Q: Specify the recorded EC50 for Cn1cc(C(=O)NC[C@H]2CN(S(=O)(=O)c3cccc(C(F)(F)F)c3)c3cc(-c4cccc(C(F)(F)F)n4)ccc3O2)c(C(F)(F)F)n1 [Compound 30BN] , system: Gal4-RORγ-LBD (Homo sapiens, UniProt P51449).
A: > 10000 nM

Q: Print Gal4-RORγ-LBD (Homo sapiens, UniProt P51449) EC50 for CC(C)(C[C@H]1CN(S(=O)(=O)c2cccc(C(F)(F)F)c2)c2cc(-c3ccccc3C#N)ccc2O1)C(=O)O [Compound 32AF] .
A: 500 to 5000 nM

Q: Please report the measured EC50 for O=C(O)[C@]1(C[C@H]2CN(S(=O)(=O)c3cccc(C(F)(F)F)c3)c3cc(-c4cc(F)ccc4F)ccc3O2)C[C@](O)(CO)C1 [Compound 89D] tested on Gal4-RORγ-LBD (Homo sapiens, UniProt P51449).
A: 500 to 5000 nM

Q: Please tell me the measured EC50 for "O=C(O)[C@]1(C[C@H]2CN(S(=O)(=O)c3cccc(C(F)(F)F)c3)c3cc(-c4cc(F)cc(OC(F)F)c4)ccc3O2)C[C@H](O)C1" ; system: Gal4-RORγ-LBD (Homo sapiens, UniProt P51449).
A: < 500 nM

Q: Fill in: EC50 on Gal4-RORγ-LBD (Homo sapiens, UniProt P51449), entry O=C(NC[C@H]1CN(S(=O)(=O)c2cccc(C(F)(F)F)c2)c2cc(-c3cc(F)cc(OC(F)F)c3)ccc2O1)C1(F)CC1 [Compound 30DJ]
A: 500 to 5000 nM

Q: Provide measured EC50 on Gal4-RORγ-LBD (Homo sapiens, UniProt P51449) for "O=C(O)[C@H]1C[C@H](C[C@H]2CN(S(=O)(=O)c3cccc(C(F)(F)F)c3)c3cc(-c4cc(F)cc(OC(F)F)c4)ccc3O2)C1" please.
A: < 500 nM

Q: Provide the reported EC50 (system: Gal4-RORγ-LBD (Homo sapiens, UniProt P51449)) for COc1cc(F)cc(-c2ccc3c(c2)N(S(=O)(=O)c2cccc(C(F)(F)F)c2)C[C@H](CC2(C(=O)O)COC2)O3)c1F [Compound 51C]
A: < 500 nM

Q: Send back Gal4-RORγ-LBD (Homo sapiens, UniProt P51449) EC50 of O=C(O)C1(C[C@H]2CN(S(=O)(=O)c3cccc(C4CC4)c3)c3cc(-c4cc(F)cc(OC(F)F)c4)ccc3O2)COC1 [Compound 51F] only.
A: < 500 nM

Q: Name the recorded EC50 of CC(=O)N[C@H]1C[C@@H]([C@H]2CN(S(=O)(=O)c3cccc(C(F)(F)F)c3)c3cc(-c4cc(F)ccc4F)ccc3O2)C1 [Compound 60L] , assay system Gal4-RORγ-LBD (Homo sapiens, UniProt P51449).
A: < 500 nM

Q: Give measured EC50 for C[C@H](C[C@H]1CN(S(=O)(=O)c2cccc(C(F)(F)F)c2)c2cc(-c3cccc(Cl)c3F)ccc2O1)C(=O)O [Compound 46D] (Gal4-RORγ-LBD (Homo sapiens, UniProt P51449)).
A: < 500 nM

Attribution: patent US10611740B2
